- test system: Human IP6K1 (Homo sapiens, UniProt Q92551)
- Construct: GST (N, cleaved yes); made in house; host or cells: C43 E. coli, pGEX-6P-2
- Sequence (Q92551 whole entry): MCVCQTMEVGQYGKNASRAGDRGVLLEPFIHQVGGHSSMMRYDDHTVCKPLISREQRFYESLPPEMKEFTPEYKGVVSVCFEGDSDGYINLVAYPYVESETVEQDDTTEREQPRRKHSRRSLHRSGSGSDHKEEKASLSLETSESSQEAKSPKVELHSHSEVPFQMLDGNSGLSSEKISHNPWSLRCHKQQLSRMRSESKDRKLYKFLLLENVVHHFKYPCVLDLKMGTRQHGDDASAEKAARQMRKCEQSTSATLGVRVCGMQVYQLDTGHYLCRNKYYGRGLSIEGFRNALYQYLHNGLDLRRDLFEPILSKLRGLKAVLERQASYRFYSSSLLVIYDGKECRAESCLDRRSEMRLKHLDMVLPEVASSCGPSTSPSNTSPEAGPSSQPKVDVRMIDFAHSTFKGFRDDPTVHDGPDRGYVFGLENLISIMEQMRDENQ
- assay method text: IP6K1 high-throughput screen of the Sigma LOPAC (ADP-Glo Max, single point);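 also: final compound concentration 10µM in 5% DMSO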
- Format: biochemical
- measurement conditions: LOPAC single-point screen; Z-score from raw signal with plate average and StDev
Structures can show the parent of a compound that is named as a salt.
Please use the following Z-score ranges when assigning a class: class A (below -0.3), class B (-0.3 to below -0.2), class C (-0.2 or more)

{"compound": "CCNC(=O)[C@H]1O[C@@H](n2cnc3c(N)ncnc32)[C@H](O)[C@@H]1O", "label": "class A"}
{"compound": "C#CCN(C)[C@H](C)Cc1ccccc1.Cl [R-(-)-Deprenyl hydrochloride]", "label": "class C"}
{"compound": "CCCCCCCCCC[Si](C)(C)CCC(=O)NC(Cc1ccc(C)cc1)c1ccccc1 (stereo not shown)", "label": "class B"}
{"compound": "CCCn1cnc2c1c(=O)n(CCCCC(C)=O)c(=O)n2C", "label": "class A"}
{"compound": "O=C(O)/C=C/c1ccc(O)c(O)c1", "label": "class B"}
{"compound": "COc1cc(OC)cc(C(CNc2ncnc3c2ncn3[C@@H]2O[C@H](CO)[C@@H](O)[C@H]2O)c2ccccc2C)c1 (stereo partly shown)", "label": "class C"}
{"compound": "CN(C)CCCN1c2ccccc2CCc2ccccc21 [Imipramine hydrochloride]", "label": "class C"}
{"compound": "CCC1(C2=NCCN2)Cc2ccccc2O1 (stereo not shown) [Efaroxan hydrochloride]", "label": "class B"}
{"compound": "COc1cccc(-c2cc(=O)c3ccccc3o2)c1N", "label": "class A"}
{"compound": "CN(C)CCCN1c2ccccc2Sc2ccc(C(F)(F)F)cc21 [Triflupromazine hydrochloride]", "label": "class A"}
{"compound": "COc1ccc2c(c1)c(CC(=O)N1CCOCC1)c(C)n2C(=O)c1ccc(Cl)cc1 [Indomethacin morpholinylamide]", "label": "class B"}
{"compound": "C=C/C(C)=C/[C@@]1(C)SC(=O)C(C)=C1O", "label": "class A"}
{"compound": "O=C(/C=C/c1ccc(O)cc1)c1ccc(O)cc1O", "label": "class C"}

====

Attribute: Z-score
- test system: Human IP6K1 (Homo sapiens, UniProt Q92551)
- Construct: GST (N, cleaved yes); made in house; host or cells: C43 E. coli, pGEX-6P-2
- assay method text: IP6K1 high-throughput screen of the Sigma LOPAC (ADP-Glo Max, single point);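 also: final compound concentration 10µM in 5% DMSO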
- Format: biochemical
- measurement conditions: LOPAC single-point screen; Z-score relative to plate average and StDev
Where a name gives a salt, the structure may show the parent alone.

{"molecule": "CC(=O)NCCc1c[nH]c2ccccc12", "test system": "Human IP6K1 (Homo sapiens, UniProt Q92551)", "Z-score": -0.7952}
{"molecule": "CC(C)N(CCC(C(N)=O)(c1ccccc1)c1ccccn1)C(C)C (stereo not shown) [Disopyramide]", "test system": "Human IP6K1 (Homo sapiens, UniProt Q92551)", "Z-score": -2.304}
{"molecule": "Nc1nccc2c1ncn2[C@@H]1O[C@H](CO)[C@@H](O)[C@H]1O", "test system": "Human IP6K1 (Homo sapiens, UniProt Q92551)", "Z-score": -0.6986}
{"molecule": "O=C(O)/C=C1\\CCCc2ccccc2C1O (stereo not shown)", "test system": "Human IP6K1 (Homo sapiens, UniProt Q92551)", "Z-score": -0.7478}
{"molecule": "CNCCc1ccc(O)c(O)c1.Cl [N-Methyldopamine hydrochloride]", "test system": "Human IP6K1 (Homo sapiens, UniProt Q92551)", "Z-score": -1.875}
{"molecule": "O=c1[nH]c2cc(C(F)(F)F)ccc2n1-c1cc(C(F)(F)F)ccc1O", "test system": "Human IP6K1 (Homo sapiens, UniProt Q92551)", "Z-score": -0.4973}
{"molecule": "NCCc1c[nH]cn1 [Histamine dihydrochloride]", "test system": "Human IP6K1 (Homo sapiens, UniProt Q92551)", "Z-score": -0.6921}
{"molecule": "O=C1O/C(=C/Br)CCC1c1cccc2ccccc12 (stereo not shown)", "test system": "Human IP6K1 (Homo sapiens, UniProt Q92551)", "Z-score": -0.952}
{"molecule": "Cc1c(CC(C)(C)C(=O)O)n(Cc2ccc(Cl)cc2)c2ccc(F)cc12", "test system": "Human IP6K1 (Homo sapiens, UniProt Q92551)", "Z-score": -0.499}
{"molecule": "NS(=O)(=O)c1cc2c(cc1Cl)N=CNS2(=O)=O [Chlorothiazide]", "test system": "Human IP6K1 (Homo sapiens, UniProt Q92551)", "Z-score": -1.533}

====

- test system: Human IP6K1 (Homo sapiens)
- Construct: GST (N, cleaved yes); made in house; host or cells: C43 E. coli, pGEX-6P-2
- assay method text: IP6K1 high-throughput screen of the Sigma LOPAC (ADP-Glo Max, single point);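 also: final compound concentration 10µM in 5% DMSO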
- Type: biochemical
- measurement conditions: LOPAC single-point screen; Z-score relative to plate average and StDev
Counter-ions that a name gives are not always drawn.
assay readout: Z-score

{"compound": "Nc1nc2c(ncn2COCCO)c(=O)[nH]1", "assay readout": "Z-score", "test result": -0.8178}
{"compound": "N#C/C(=C\\c1ccc(O)c(O)c1)C(=O)NCCCNC(=O)/C(C#N)=C/c1ccc(O)c(O)c1", "assay readout": "Z-score", "test result": -4.41}
{"compound": "CCCN1CCC[C@H](c2cccc(O)c2)C1.Cl [R(+)-3PPP hydrochloride]", "assay readout": "Z-score", "test result": -1.045}
{"compound": "C[N+](C)(C)CCOC(=O)CCC(=O)OCC[N+](C)(C)C [Succinylcholine chloride]", "assay readout": "Z-score", "test result": -0.881}
{"compound": "CC[N+](C)(CC)CC(=O)Nc1c(C)cccc1C.[Cl-] [Lidocaine N-methyl hydrochloride]", "assay readout": "Z-score", "test result": -0.4795}
{"compound": "CCNC(=O)N1CCN(CCCC(c2ccc(F)cc2)c2ccc(F)cc2)CC1 [Amperozide hydrochloride]", "assay readout": "Z-score", "test result": -0.8995}
{"compound": "C[C@H]1c2cccc(O)c2C(=O)C2=C(O)[C@]3(O)C(=O)C(C(N)=O)=C(O)[C@@H](N(C)C)[C@@H]3[C@@H](O)[C@@H]21 [Doxycycline hydrochloride]", "assay readout": "Z-score", "test result": -0.6546}
{"compound": "CNC[C@H](O)c1ccc(O)c(O)c1 [(-)-Epinephrine bitartrate]", "assay readout": "Z-score", "test result": -0.7998}
{"compound": "C=CCN1CC[C@@]2(C)c3cc(O)ccc3C[C@@H]1[C@@H]2C.Cl (racemic) [(±)-N-Allylnormetazocine hydrochloride]", "assay readout": "Z-score", "test result": -0.8812}
{"compound": "Cc1ccc(S(=O)(=O)N[C@@H](CCCCN)C(=O)CCl)cc1.Cl", "assay readout": "Z-score", "test result": -0.4967}
{"compound": "COc1cc([C@@H]2c3cc4c(cc3[C@H](O)[C@H]3COC(=O)[C@H]23)OCO4)cc(OC)c1OC", "assay readout": "Z-score", "test result": -0.5821}
{"compound": "CC(=O)OC(C)C[N+](C)(C)C.[Cl-] (stereo not drawn) [Acetyl-beta-methylcholine chloride]", "assay readout": "Z-score", "test result": -0.5679}
{"compound": "CC1(C)CCC=[N+]1[O-] [5,5-Dimethyl-1-pyrroline-N-oxide]", "assay readout": "Z-score", "test result": -0.6525}
{"compound": "CCCc1c(-c2ccc(O)cc2)nn(-c2ccc(O)cc2)c1-c1ccc(O)cc1", "assay readout": "Z-score", "test result": -0.6129}
{"compound": "Nc1nc2ccc(OC(F)(F)F)cc2s1", "assay readout": "Z-score", "test result": -0.7396}
{"compound": "Cl.NC1CCN(c2cccc(Cl)n2)CC1 [SR 57227A]", "assay readout": "Z-score", "test result": -0.5144}
{"compound": "CCOC(=O)N1CCC(=C2c3ccc(Cl)cc3CCc3cccnc32)CC1", "assay readout": "Z-score", "test result": -0.7974}
{"compound": "CC(CCc1ccc(O)cc1)NCCc1ccc(O)c(O)c1 (stereo not shown) [Dobutamine hydrochloride]", "assay readout": "Z-score", "test result": -0.5429}
{"compound": "C[C@@H]1O[C@@H](O[C@H]2C[C@@H](O)[C@]3(CO)[C@H]4[C@H](O)C[C@]5(C)[C@@H]([C@@H]6COC(=O)C6)CC[C@]5(O)[C@@H]4CC[C@]3(O)C2)[C@H](O)[C@H](O)[C@H]1O [Dihydroouabain]", "assay readout": "Z-score", "test result": -1.3668}
